The following compounds are shown together with reported IC50 values.
# MEASURED ON: UniProt P09874
# EXPERIMENT DESCRIPTION: PARP-1 radioligand binding in live OVCAR8 cells ([125I]KX1 competition)
# APPLIED CONDITIONS: radioligand binding in OVCAR8 cells
Just the number in µM, nothing appended.

Qu. Lab note: need IC50 with UniProt P09874 for entry CC(C)(C)OC(=O)N1CC2(C1)CN(C(=O)c1cc(Cc3n[nH]c(=O)c4ccccc34)ccc1F)C2 [Compound 10c] , please look it up.
Ans. 0.552

Qu. Record: O=C(c1cc(Cc2n[nH]c(=O)c3ccccc23)ccc1F)N1CC2(COC2)C1 [Compound 10b]
Ans. 0.0249

Qu. # repeat for O=C(c1cc(Cc2n[nH]c(=O)c3ccccc23)ccc1F)N1CCC2(CC1)CCN(C(=O)C1CC1)CC2 [Compound 17d]
Ans. 0.0443

Qu. What do we get for O=C(c1cc(Cc2n[nH]c(=O)c3ccccc23)ccc1F)N1CC2(C1)CN(C(=O)C1CC1)C2 [Compound 10e] ?
Ans. 0.0126

Qu. O=C(c1cc(Cc2n[nH]c(=O)c3ccccc23)ccc1F)N1CCC12CCNCC2 [Compound 13c] , same question.
Ans. 0.11

---

# MEASURED ON: PARP-1 (Homo sapiens)
# EXPERIMENT DESCRIPTION: PARP-1 radioligand binding in live OVCAR8 cells ([125I]KX1 competition)
pEC50: −log10 of the molar value.
// label = t if pEC50 is not less than 7, otherwise f

Some entries whose results are on file:
O=C(c1cc(Cc2n[nH]c(=O)c3ccccc23)ccc1F)N1CC[C@@H](OCCF)C1 ... t
O=C(c1cc(Cc2n[nH]c(=O)c3ccccc23)ccc1F)N1CCC2(CCCCC2)CC1 [Compound 17a] ... t
CC(C)(C)OC(=O)N1CCC2(CC1)CCN2C(=O)c1cc(Cc2n[nH]c(=O)c3ccccc23)ccc1F [Compound 13b] ... f
CC(C)(C)OC(=O)N1CC2(C1)CN(C(=O)c1cc(Cc3n[nH]c(=O)c4ccccc34)ccc1F)C2 [Compound 10c] ... f
CC(C)(C)OC(=O)N1CCC2(CCN(C(=O)c3cc(Cc4n[nH]c(=O)c5ccccc45)ccc3F)C2)C1 (stereo not drawn) [Compound 15b] ... f
O=C(c1cc(Cc2n[nH]c(=O)c3ccccc23)ccc1F)N1CCC(OCCF)CC1 ... t
O=C(c1cc(Cc2n[nH]c(=O)c3ccccc23)ccc1F)N1CCC12CCCCC2 [Compound 13a] ... f

Qu. Is reported pEC50 greater than or equal to 7 here: O=C(c1cc(Cc2n[nH]c(=O)c3ccccc23)ccc1F)N1CCCC(OCCF)CC1 (stereo not drawn)
Ans. t

---

# Test system: MEF PARP-1 (-/-) KO cells
# EXPERIMENT DESCRIPTION: Cell viability assay in MEF PARP-1 KO-/- cells
# Assay type: cell-based
# APPLIED CONDITIONS: Mus musculus, NA = Not applicable, no cell death observed
Kindly apply the following: 1 (yes) if EC50 is less than 50 µM, 0 (no) in every other case.

Answered examples (4):
O=C(c1cc(Cc2n[nH]c(=O)c3ccccc23)ccc1F)N1CCC2(CCCCC2)C1 [Compound 16a] ... 0 (no)
CC(C)(C)OC(=O)N1CCC2(CC1)CCN(C(=O)c1cc(Cc3n[nH]c(=O)c4ccccc34)ccc1F)CC2 [Compound 17b] ... 1 (yes)
CC(C)(C)OC(=O)N1CCC2(CCN(C(=O)c3cc(Cc4n[nH]c(=O)c5ccccc45)ccc3F)C2)C1 (stereo not shown) [Compound 15b] ... 1 (yes)
CC(C)(C)OC(=O)N1CCC2(CC1)CCN(C(=O)c1cc(Cc3n[nH]c(=O)c4ccccc34)ccc1F)C2 [Compound 16b] ... 1 (yes)

API: the following record is the query input.
Qu. EC50 under 50 µM? Item: O=C(c1cc(Cc2n[nH]c(=O)c3ccccc23)ccc1F)N1CC2(CCCCC2)C1 [Compound 12a]
Ans. 1 (yes)

---

# MEASURED ON: PARP-1 (Homo sapiens, UniProt P09874)
# Sequence (P09874 whole entry): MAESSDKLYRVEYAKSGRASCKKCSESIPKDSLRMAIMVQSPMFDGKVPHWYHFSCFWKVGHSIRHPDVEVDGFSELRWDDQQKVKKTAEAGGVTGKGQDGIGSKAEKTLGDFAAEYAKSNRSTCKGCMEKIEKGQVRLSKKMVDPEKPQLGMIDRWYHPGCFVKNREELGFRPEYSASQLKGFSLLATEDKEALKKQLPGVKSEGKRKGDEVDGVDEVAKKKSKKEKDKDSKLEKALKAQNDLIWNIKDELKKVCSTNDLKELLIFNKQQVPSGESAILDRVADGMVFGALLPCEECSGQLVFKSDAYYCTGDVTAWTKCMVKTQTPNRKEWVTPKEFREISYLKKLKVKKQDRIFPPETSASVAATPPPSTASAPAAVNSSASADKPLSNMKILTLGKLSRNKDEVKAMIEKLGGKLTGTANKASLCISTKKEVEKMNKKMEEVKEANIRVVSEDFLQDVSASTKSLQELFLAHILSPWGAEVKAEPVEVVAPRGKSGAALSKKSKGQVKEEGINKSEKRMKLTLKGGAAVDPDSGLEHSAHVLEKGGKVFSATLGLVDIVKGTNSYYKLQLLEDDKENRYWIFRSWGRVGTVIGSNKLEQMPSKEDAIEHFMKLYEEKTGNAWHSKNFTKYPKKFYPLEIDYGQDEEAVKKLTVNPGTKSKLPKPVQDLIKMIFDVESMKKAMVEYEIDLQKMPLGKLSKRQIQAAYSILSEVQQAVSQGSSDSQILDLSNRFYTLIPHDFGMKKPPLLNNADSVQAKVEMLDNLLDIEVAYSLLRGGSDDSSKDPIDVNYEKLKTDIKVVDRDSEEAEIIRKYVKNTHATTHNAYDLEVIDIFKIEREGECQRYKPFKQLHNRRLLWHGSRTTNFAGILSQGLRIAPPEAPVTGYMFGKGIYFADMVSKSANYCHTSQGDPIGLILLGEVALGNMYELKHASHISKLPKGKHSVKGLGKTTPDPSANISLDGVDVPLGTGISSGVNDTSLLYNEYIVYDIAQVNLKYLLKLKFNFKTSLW
# EXPERIMENT DESCRIPTION: PARP-1 radioligand binding in live OVCAR8 cells ([125I]KX1 competition)
Consider the following compounds and their measured pEC50 readings.
Just the number, please; pEC50 means minus log10 of the concentration in mol/L.

Some solved cases for reference:
CC(C)(C)OC(=O)N1CCC2(CC1)CCN(C(=O)c1cc(Cc3n[nH]c(=O)c4ccccc34)ccc1F)CC2 [Compound 17b] ... 6.34
O=C(c1ccc(F)cc1)N1CC2(C1)CN(C(=O)c1cc(Cc3n[nH]c(=O)c4ccccc34)ccc1F)C2 ... 7.66
CC(C)(C)OC(=O)N1CCC2(CC1)CN(C(=O)c1cc(Cc3n[nH]c(=O)c4ccccc34)ccc1F)C2 [Compound 12b] ... 5.51

Qu. Need pEC50 of COC1CCCN(C(=O)c2cc(Cc3n[nH]c(=O)c4ccccc34)ccc2F)CC1 (stereo not shown) , thanks.
Ans. 8.32

---

# MEASURED ON: PARP-1 (Homo sapiens, UniProt P09874)
# EXPERIMENT DESCRIPTION: PARP-1 radioligand binding in live OVCAR8 cells ([125I]KX1 competition)
# APPLIED CONDITIONS: radioligand binding in OVCAR8 cells
PROPERTY MEASURED: pIC50
Bear in mind: pIC50 is minus log10 of a mol/L concentration; give just that figure.

Some compounds with known pIC50 results, for comparison:
CC(C)(C)OC(=O)N1CCC2(C1)CN(C(=O)c1cc(Cc3n[nH]c(=O)c4ccccc34)ccc1F)C2 [Compound 14b] ... 5.92
CC(C)(C)OC(=O)N1CCC2(CC1)CCN(C(=O)c1cc(Cc3n[nH]c(=O)c4ccccc34)ccc1F)CC2 [Compound 17b] ... 6.34
CC(C)(C)OC(=O)N1CCC2(CC1)CN(C(=O)c1cc(Cc3n[nH]c(=O)c4ccccc34)ccc1F)C2 [Compound 12b] ... 5.51

Qu. // map CC(C)(C)OC(=O)N1CCC2(CCN(C(=O)c3cc(Cc4n[nH]c(=O)c5ccccc45)ccc3F)C2)C1 (stereo not shown) [Compound 15b] to recorded pIC50 (system: PARP-1 (Homo sapiens, UniProt P09874))
Ans. 5.36

---

compounds and their reported pEC50
# MEASURED ON: PARP-1 (Homo sapiens, UniProt P09874)
# EXPERIMENT DESCRIPTION: PARP-1 radioligand binding in live OVCAR8 cells ([125I]KX1 competition)
// returns pEC50 (minus log10 of molar concentration), number only

O=C(c1cc(Cc2n[nH]c(=O)c3ccccc23)ccc1F)N1CC2(COC2)C1 [Compound 10b] ... 7.60
O=C(c1cc(Cc2n[nH]c(=O)c3ccccc23)ccc1F)N1CCC12CCNCC2 [Compound 13c] ... 6.96
O=C(c1cc(Cc2n[nH]c(=O)c3ccccc23)ccc1F)N1CCC2(CCNCC2)C1 [Compound 16c] ... 5.41
O=C(c1cc(Cc2n[nH]c(=O)c3ccccc23)ccc1F)N1CCC2(CCNC2)C1 (centres unmarked) [Compound 15c] ... 5.95
O=C(c1cc(Cc2n[nH]c(=O)c3ccccc23)ccc1F)N1CC2(CC(c3ccc(F)cc3)C2)C1 [Compound 39] ... 8.55

Qu. Would you kindly share the measured pEC50 for O=C(c1cc(Cc2n[nH]c(=O)c3ccccc23)ccc1F)N1CCC2(CCCCC2)C1 [Compound 16a] ?
Ans. 6.85

Qu. Similarly, O=C(c1cc(Cc2n[nH]c(=O)c3ccccc23)ccc1F)N1CC2(CCN(C(=O)C3CC3)CC2)C1 [Compound 12d] ?
Ans. 7.00

Qu. Then this compound: COC1CCC(NC(=O)c2cc(Cc3n[nH]c(=O)c4ccccc34)ccc2F)C1 (centres unmarked) [Compound 21]
Ans. 7.30

---

# System: MEF PARP-2 (-/-) KO cells
# EXPERIMENT DESCRIPTION: Cell viability assay in MEF PARP-2 KO-/- cells
# Type: cell-based, mouse
# APPLIED CONDITIONS: Mus musculus, NA = Not applicable, no cell death observed
PROPERTY MEASURED: EC50
Field: value (include unit after the number)

Qu. Value lookup for EC50; key = O=C(c1cc(Cc2n[nH]c(=O)c3ccccc23)ccc1F)N1CC2(COC2)C1 [Compound 10b]
Ans. 53.3 µM

Qu. How about this compound: CC(C)(C)OC(=O)N1CCC2(CC1)CN(C(=O)c1cc(Cc3n[nH]c(=O)c4ccccc34)ccc1F)C2 [Compound 12b]
Ans. 41.5 µM

Qu. How about O=C(c1cc(Cc2n[nH]c(=O)c3ccccc23)ccc1F)N1CC2(C1)CN(C(=O)C1CC1)C2 [Compound 10e] ?
Ans. 59.8 µM

Qu. Also CC(C)(C)OC(=O)N1CC2(C1)CN(C(=O)c1cc(Cc3n[nH]c(=O)c4ccccc34)ccc1F)C2 [Compound 10c] ?
Ans. 24.7 µM

Qu. Same thing, different compound: CC(C)(C)OC(=O)N1CCC2(CC1)CCN(C(=O)c1cc(Cc3n[nH]c(=O)c4ccccc34)ccc1F)CC2 [Compound 17b]
Ans. 19.2 µM

Qu. And O=C(c1cc(Cc2n[nH]c(=O)c3ccccc23)ccc1F)N1CCC2(CCNCC2)CC1 [Compound 17c] ?
Ans. 59.7 µM

Qu. Record: CC(C)(C)OC(=O)N1CCC2(CCN(C(=O)c3cc(Cc4n[nH]c(=O)c5ccccc45)ccc3F)C2)C1 (stereo not drawn) [Compound 15b]
Ans. 23.4 µM

Where do the numbers come from? From patent US11542282B2.
